The reported measurements were obtained from patent US20090291081A1.

# Target Entity: human IL-1β (human, UniProt P01584 117-269)
# Procedure Details: cell-based or functional assay
Answer each item with its documented ND50.
Please state the figure in nM; there is no need to write the unit.

Q: For the binder ABT2-65-166 (other) VH: EVQLLESGGGLVQPGGSLRLSCAASGFTFEDYQMGWVRQAPGKGLEWVSSISAMGGRTYYADSVKGRFTISRDNSKNTLYLQMNSLRAEDTAVYYCAQNLVRLGRSRWMFDYWGQGTLVTVSS , what ND50 is on record?
A: 4

Q: For the binder ABT2-108-538X (other) VH: EVQLLESGGGLVQPGGSLRLSCAASGFTFADEGMMWVRQAPGKGLEWVSRITYSGKNTYYADSVKGRFTISRDNSKNTLYLQMNSLRAEDTAVYYCAKYTGRILGHHLFDYWGQGTLVTVSS , what ND50 is on record?
A: 5
